Test system: OVCAR-5
Experiment: NCI tumour cell line growth inhibition, 48 h
Active and inactive are the calls of the source. Rule as the data show it: active = GI50 up to about 1.1 µM and inactive = higher.
Items are presented alongside their recorded GI50.
endpoint-name: GI50

{"molecule": "COC(=O)/C=C/C1C2C3(CCC(C)C12C)OCCS3 (centres undefined)", "result": "> 100 µM (inactive)"}
{"molecule": "CC(C)=Cc1cc(C)c2c(O)cc(C)c3c2c1C(C)=C(O)C3=O", "result": "28.7 µM (inactive)"}
{"molecule": "CC(C)(C)C1=CC(=C2C=Cc3ccccc3O2)C=C(C(C)(C)C)C1=O", "result": "6.7 µM (inactive)"}
{"molecule": "COC(=O)N/N=C(\\C)C(CN1CCCCC1)C(C1=C(O)c2ccccc2OC1)c1ccccc1 (centres undefined)", "result": "> 100 µM (inactive)"}
{"molecule": "CNC(=O)NCCCC(NC(C)=O)C(=O)NCc1ccccc1 (centres undefined)", "result": "> 100 µM (inactive)"}
{"molecule": "CCCCCC(=O)Cc1cc(OC)cc2c1C(=O)Oc1cc(O)c(C(=O)O)c(CC(=O)CCCCC)c1O2", "result": "> 100 µM (inactive)"}
{"molecule": "CN(C)C(=S)/N=c1\\ss/c(=N\\C(=S)N(C)C)n1-c1ccc(Cl)c(Cl)c1", "result": "> 100 µM (inactive)"}
{"molecule": "O=S(=O)(C1=CC(S(=O)(=O)c2ccccc2)CN(Cc2ccccc2)C1c1cccc2ccccc12)c1ccccc1 (centres undefined)", "result": "> 69 µM (inactive)"}
{"molecule": "N#Cc1c(-c2ccc([N+](=O)[O-])cc2)c(C#N)c(=O)n(NS(=O)(=O)c2ccccc2)c1-c1ccccc1", "result": "> 100 µM (inactive)"}

---

Test system: UACC-257
Assay: NCI tumour cell line growth inhibition, 48 h
Active and inactive are the calls of the source. Rule as the data show it: active = GI50 up to about 1.1 µM and inactive = higher.

{"chemical-smiles": "CCCCOc1ccc(S(=O)(=O)N/C(=N\\O)Nc2ccc(Cl)cc2)cc1", "GI50": "15.5 µM (inactive)"}
{"chemical-smiles": "Cc1nc(-c2nc(C)c(C(=O)NNC(=O)C[n+]3ccccc3)s2)sc1C(=O)NNC(=O)C[n+]1ccccc1", "GI50": "94.2 µM (inactive)"}
{"chemical-smiles": "O=P1(O)c2ccccc2CCc2ccccc21", "GI50": "> 100 µM (inactive)"}
{"chemical-smiles": "CCOC(=O)C(C)(C(=O)OCC)/C(Cl)=C\\Cl", "GI50": "> 100 µM (inactive)"}
{"chemical-smiles": "N=C1C(=N)c2ccccc2-c2ccccc21", "GI50": "0.692 µM (active)"}
{"chemical-smiles": "O=C(c1ccccn1)c1nc(-c2ccc(Cl)c(Cl)c2)nc2ccc(Cl)cc12", "GI50": "> 100 µM (inactive)"}

---

Test system: OVCAR-4
Experiment: NCI tumour cell line growth inhibition, 48 h
Activity calls are given as the source filed them. Rule as the data show it: active = GI50 up to about 1.1 µM and inactive = higher.

{"compound": "CNC(=O)NCCCC(NC(C)=O)C(=O)NCc1ccccc1 (configuration not stated)", "target-under-test": "OVCAR-4", "GI50": "> 100 µM (inactive)"}
{"compound": "COc1ccc(/N=C2\\C(=N/c3ccc(OC)cc3)N(c3ccc(N(C)C)cc3)C(=S)N2c2ccc(OC)cc2)cc1", "target-under-test": "OVCAR-4", "GI50": "> 100 µM (inactive)"}
{"compound": "Cn1c(N(CCO)CCO)cnc1[N+](=O)[O-]", "target-under-test": "OVCAR-4", "GI50": "> 100 µM (inactive)"}
{"compound": "Cc1cc(N(CCC#N)S(=O)(=O)c2ccccc2)ccc1/C=C1\\N=C(c2ccc(Cl)cc2)OC1=O", "target-under-test": "OVCAR-4", "GI50": "> 100 µM (inactive)"}
{"compound": "COc1ccc2c(c1)N1CCc3cc(OC)c(OC)cc3C1C2 (configuration not stated)", "target-under-test": "OVCAR-4", "GI50": "33.8 µM (inactive)"}
{"compound": "O=C1Nc2ccc(Br)cc2/C1=N/Nc1ccccc1[N+](=O)[O-]", "target-under-test": "OVCAR-4", "GI50": "14.4 µM (inactive)"}
{"compound": "O=C1OC(c2ccccc2)=N/C1=C\\c1ccc2ccccc2c1", "target-under-test": "OVCAR-4", "GI50": "> 100 µM (inactive)"}
{"compound": "O=C(NC12CC3CC(CC(C3)C1)C2)C(=O)c1c[nH]c2ccc(Br)cc12", "target-under-test": "OVCAR-4", "GI50": "14 µM (inactive)"}
{"compound": "CC(C)(C)C1=CC(=C2C=Cc3ccccc3O2)C=C(C(C)(C)C)C1=O", "target-under-test": "OVCAR-4", "GI50": "2.41 µM (inactive)"}
{"compound": "CC(C)(C)c1ccc2c(c1)C(O)(c1ccccc1)c1cc(C(C)(C)C)ccc1C2(O)C(F)(F)F (configuration not stated)", "target-under-test": "OVCAR-4", "GI50": "1.83 µM (inactive)"}
{"compound": "[O-][S+](CC1(O)CCCCC1)c1ccccc1 (configuration not stated)", "target-under-test": "OVCAR-4", "GI50": "> 100 µM (inactive)"}
{"compound": "O=C1C=CC(=O)C(N(CCO)CCO)=C1.O=C1C=CC2(O)OCCN(CCO)C2=C1", "target-under-test": "OVCAR-4", "GI50": "> 100 µM (inactive)"}
{"compound": "CCOC(=O)c1cn2c(n1)sc1cc(C)c(C)cc12", "target-under-test": "OVCAR-4", "GI50": "> 100 µM (inactive)"}
{"compound": "COc1ccc(-c2cc(-c3ccccc3)nc3c2CC(=O)Nc2ccccc2-3)cc1OC", "target-under-test": "OVCAR-4", "GI50": "1.2 µM (inactive)"}
{"compound": "COC(=O)CCc1ccc2c(c1)C(=O)CC2", "target-under-test": "OVCAR-4", "GI50": "> 100 µM (inactive)"}
{"compound": "CC(O)C(N/C=C1/N=C(c2ccccc2)OC1=O)C(=O)O (configuration not stated)", "target-under-test": "OVCAR-4", "GI50": "> 100 µM (inactive)"}
{"compound": "CC(=O)N1C(OCc2ccccc2)CCN1c1ccccc1 (configuration not stated)", "target-under-test": "OVCAR-4", "GI50": "> 10 µM (inactive)"}
{"compound": "O=C1CN(c2ccccc2)Cc2nc(Cl)ccc2N1", "target-under-test": "OVCAR-4", "GI50": "> 100 µM (inactive)"}
{"compound": "Oc1cccc(-c2cn3cc(C(F)(F)F)ccc3n2)c1", "target-under-test": "OVCAR-4", "GI50": "22.1 µM (inactive)"}
{"compound": "CN(C)CCCNc1ccnc2cc([N+](=O)[O-])ccc12", "target-under-test": "OVCAR-4", "GI50": "3.35 µM (inactive)"}
{"compound": "Nc1nc(N)c(CCCCc2ccc([N+](=O)[O-])cc2)c(N)n1", "target-under-test": "OVCAR-4", "GI50": "> 100 µM (inactive)"}
{"compound": "CCOc1ccc(/N=N/C2C(=O)N(C(=O)CC(=O)Nc3ccccc3)N=C2C)cc1 (configuration not stated)", "target-under-test": "OVCAR-4", "GI50": "> 100 µM (inactive)"}

---

Tested on: MDA-MB-435
Assay: NCI tumour cell line growth inhibition, 48 h
The source made the active and inactive calls. Cut-off read from the data, not from the text of the source: active = GI50 up to about 1.1 µM and inactive = higher.
Labels: y (active), n (inactive)

{"compound": "Cn1c(N(CCO)CCO)cnc1[N+](=O)[O-]", "group": "n"}
{"compound": "CO/N=[N+](\\[O-])NC(C)C", "group": "n"}
{"compound": "CC[C@@]1(O)C(=O)OCc2c1cc1n(c2=O)Cc2c-1nc1ccccc1c2/C=N/NC(=O)C[N+](C)(C)C", "group": "n"}
{"compound": "O=C1C=CC(=O)C(N(CCO)CCO)=C1.O=C1C=CC2(O)OCCN(CCO)C2=C1", "group": "n"}
{"compound": "O=C(O)c1cc(=O)c2c(OCC(O)COc3cccc4oc(C(=O)O)cc(=O)c34)cccc2o1", "group": "n"}
{"compound": "CCCCOc1ccc(S(=O)(=O)N/C(=N\\O)Nc2ccc(Cl)cc2)cc1", "group": "n"}
{"compound": "COc1ccc(NCc2cc(OC)c(OC)c(OC)c2)cc1", "group": "y"}
{"compound": "CCOC(=O)/C=C(/C(=O)OCC)n1cc(Cl)c(=O)n(CC(=O)OCC)c1=O", "group": "n"}
{"compound": "S=C(N/N=C(/c1ccccc1)c1ccccn1)N(Cc1ccccn1)Cc1ccccn1", "group": "y"}
{"compound": "NC1=CN(Cc2ccccc2)C2=N/C(=C\\c3ccccc3O)C(=O)N12", "group": "n"}
{"compound": "Cc1cccc(/C=C2/C(=O)Nc3ccccc32)n1", "group": "n"}
{"compound": "CC1(C)COCN1COC1CCCCC1", "group": "n"}
{"compound": "Cc1ccc(C(=O)C#Cc2cn(C3CC(O)C(CO)O3)c(=O)[nH]c2=O)cc1 (configuration not stated)", "group": "n"}
{"compound": "CCOC(=O)c1nc2cc(C(F)(F)F)ccc2nc1Nc1ccc(C(=O)NC(C(=O)OCC)C(=O)OCC)cc1", "group": "n"}
{"compound": "O=C1/C(=C/c2ccc(O)c(CN3CCCCC3)c2)CCC/C1=C\\c1ccc(O)c(CN2CCCCC2)c1", "group": "n"}
{"compound": "CC(=O)N1C(OCc2ccccc2)CCN1c1ccccc1 (configuration not stated)", "group": "n"}
{"compound": "COc1ccc(/C=N/Nc2nc(=S)[nH]c3[nH]ncc23)cc1", "group": "n"}
{"compound": "O=C(O)CCC(=O)c1ccc2ccc3cccc4ccc1c2c34", "group": "n"}
{"compound": "Cc1cc(N(C)c2ccccc2)nc(N(C)c2ccccc2)n1", "group": "n"}
{"compound": "C[C@]12O[C@@]3(C)O[C@@]3(C)[C@]3(C)O[C@]3(C)[C@@]1(C)O2", "group": "n"}
{"compound": "CN(C)CCCNc1ccnc2cc([N+](=O)[O-])ccc12", "group": "n"}
{"compound": "O=c1c(S(=O)(=O)Oc2ccccc2)coc2cc(F)ccc12", "group": "n"}

These entries and their values trace back to ChEMBL document CHEMBL1201862.
